# test: Protein binding in human serum at 25 to 100 uM after 4 hrs by LC-MS method
# Type: ADME, cell-free
# study.conditions: read-out: PB (converted)
# maps each entry to its fraction unbound at 4 h, up to 100 µM

Example cases with answers are listed next.
Data request: Consider the compound CC(C)C[C@H](NC(=O)OCc1ccccc1)C(=O)N[C@@H](C[C@@H]1CCNC1=O)C(O)S(=O)(=O)O (some centres undefined) and give its measured fraction unbound at 4 h, up to 100 µM.
Data returned: 0.35

Data request: Consider the compound CC(=O)CC(c1ccccc1)c1c(O)c2ccccc2oc1=O (centres undefined) and give its measured fraction unbound at 4 h, up to 100 µM.
Data returned: 0.01

Data request: Consider the compound O=C[C@H](C[C@@H]1CCNC1=O)NC(=O)[C@H](CC1CCCCC1)NC(=O)OCc1cccc(Cl)c1 and give its measured fraction unbound at 4 h, up to 100 µM.
Data returned: 0.02

# evaluate next
Data request: Consider the compound O=C(N[C@@H](CC1CCCCC1)C(=O)N[C@@H](C[C@@H]1CCNC1=O)C(O)S(=O)(=O)O)OCc1cccc(Cl)c1 (some centres undefined) and give its measured fraction unbound at 4 h, up to 100 µM.
Data returned: 0.04

----------
# test: Selectivity index, ratio of CC50 for human HeLa cells to EC50 for norovirus
# maps each entry to its selectivity ratio
Give your answer as a number; write no unit.

Example cases with answers are listed next.
Data request: Consider the molecule CCC(=O)OC([C@H](C[C@@H]1CCNC1=O)NC(=O)[C@H](CC1CCCCC1)NC(=O)OCc1cccc(Cl)c1)S(=O)(=O)[O-].[Na+] (stereo partly specified) and give its measured selectivity ratio.
Data returned: 4480

Data request: Consider the molecule O=C(N[C@@H](CC1CCCCC1)C(=O)N[C@@H](C[C@@H]1CCNC1=O)C(O)S(=O)(=O)O)OCc1cccc(Cl)c1 (stereo partly specified) and give its measured selectivity ratio.
Data returned: 2480

Others:
Data request: Consider the molecule CCCCCC(=O)OC([C@H](C[C@@H]1CCNC1=O)NC(=O)[C@H](CC1CCCCC1)NC(=O)OCc1cccc(Cl)c1)S(=O)(=O)O (stereo partly specified) and give its measured selectivity ratio.
Data returned: 5470

Data request: Consider the molecule O=C[C@H](C[C@@H]1CCNC1=O)NC(=O)[C@H](CC1CCCCC1)NC(=O)OCc1cccc(Cl)c1 and give its measured selectivity ratio.
Data returned: 2800

----------
# Tested on: Norovirus
# test: Antiviral activity against Norovirus infected in human HG23 cells assessed as inhibition of viral replication after 48 hrs by quantitative RT-PCR method
# Type: functional, cell-based
# study.conditions: HG23, 48 h
# maps each entry to its EC50
Answer with a number only, understood to be in nM.

Example cases with answers are listed next.
Data request: Consider the compound CCC(=O)OC([C@H](C[C@@H]1CCNC1=O)NC(=O)[C@H](CC1CCCCC1)NC(=O)OCc1cccc(Cl)c1)S(=O)(=O)[O-].[Na+] (stereo not given in full) and give its measured EC50.
Data returned: 25

Data request: Consider the compound O=C(N[C@@H](CC1CCCCC1)C(=O)N[C@@H](C[C@@H]1CCNC1=O)C(OC(=O)C1CCCCC1)S(=O)(=O)O)OCc1cccc(Cl)c1 (stereo not given in full) and give its measured EC50.
Data returned: 20

Data request: Consider the compound CCCCCC(=O)OC([C@H](C[C@@H]1CCNC1=O)NC(=O)[C@H](CC(C)C)NC(=O)OCc1ccccc1)S(=O)(=O)O (stereo not given in full) and give its measured EC50.
Data returned: 300

Others:
Data request: Consider the compound O=C(N[C@@H](CC1CCCCC1)C(=O)N[C@@H](C[C@@H]1CCNC1=O)C(O)S(=O)(=O)O)OCc1cccc(Cl)c1 (stereo not given in full) and give its measured EC50.
Data returned: 20

Data request: Consider the compound CC(C)C[C@H](NC(=O)OCc1ccccc1)C(=O)N[C@@H](C[C@@H]1CCNC1=O)C(O)S(=O)(=O)O (stereo not given in full) and give its measured EC50.
Data returned: 300

Data request: Consider the compound CCCCC(=O)OC([C@H](C[C@@H]1CCNC1=O)NC(=O)[C@H](CC(C)C)NC(=O)OCc1ccccc1)S(=O)(=O)O (stereo not given in full) and give its measured EC50.
Data returned: 1400

Data request: Consider the compound COC(=O)CNC(=O)OC([C@H](C[C@@H]1CCNC1=O)NC(=O)[C@H](CC(C)C)NC(=O)OCc1ccccc1)S(=O)(=O)O (stereo not given in full) and give its measured EC50.
Data returned: 400

Data request: Consider the compound CCCCCCOC(=O)OC([C@H](C[C@@H]1CCNC1=O)NC(=O)[C@H](CC1CCCCC1)NC(=O)OCc1cccc(Cl)c1)S(=O)(=O)O (stereo not given in full) and give its measured EC50.
Data returned: 25

Data request: Consider the compound CCCCCC(=O)OC([C@H](C[C@@H]1CCNC1=O)NC(=O)[C@H](CC1CCCCC1)NC(=O)OCc1cccc(Cl)c1)S(=O)(=O)O (stereo not given in full) and give its measured EC50.
Data returned: 15

Data request: Consider the compound COC(=O)C(C)NC(=O)OC([C@H](C[C@@H]1CCNC1=O)NC(=O)[C@H](CC(C)C)NC(=O)OCc1ccccc1)S(=O)(=O)O (stereo not given in full) and give its measured EC50.
Data returned: 300

Data request: Consider the compound CC(C)C[C@H](NC(=O)OCc1ccccc1)C(=O)N[C@@H](C[C@@H]1CCNC1=O)C(OC(=O)c1ccccc1)S(=O)(=O)O (stereo not given in full) and give its measured EC50.
Data returned: 800

Data request: Consider the compound COC(=O)C(C)NC(=O)OC([C@H](C[C@@H]1CCNC1=O)NC(=O)[C@H](CC1CCCCC1)NC(=O)OCc1cccc(Cl)c1)S(=O)(=O)O (stereo not given in full) and give its measured EC50.
Data returned: 25
